readout-type: melting point

# input State its melting point for this molecule: `CCCCCCS(=O)(=O)c1nn2c(=O)c(C(C)=O)cnc2s1`
# output 124 to 125 °C

# input State its melting point for this molecule: CCC(=O)c1cc(C2(c3cccc(O)c3)N=C(N)N(C)C2=O)cn1CC (stereo not given)
# output 101 °C

# input State its melting point for this molecule: NC(=O)CCCC1(c2ccccc2)CC(O)=C(SCc2ccccc2)C(=O)O1 (stereo not given)
# output 47.5 to 53 °C

# input State its melting point for this molecule: `COC(=O)c1ccc2sc(/C=C/c3cccc(N)c3)nc2c1`
# output 165 to 167 °C

# input State its melting point for this molecule: O=C1N(c2ccc(Br)cc2F)C(=S)C2CCCCC12O (stereo not given)
# output 163 to 164 °C

# input State its melting point for this molecule: `CCOC(=O)C1=C(C(=O)OC)CC(=O)C2=C1SC=C1C=CC=CN12`
# output 143 to 144 °C

# input State its melting point for this molecule: `COc1ccc(-c2nc(S)[nH]c2-c2ccncc2)cc1`
# output 280 °C

# input State its melting point for this molecule: CC(C)(C)c1ccc(S(=O)(=O)NC(=O)C(Oc2ccc3c(c2)C(=O)NC3=O)c2ccc3c(c2)OCO3)cc1 (stereo not given)
# output 215 °C

# input State its melting point for this molecule: `COc1ccc(Nc2c(C#N)cnc3cc(OC)c(OC)cc23)cc1Cl`
# output 278 to 280 °C

# input State its melting point for this molecule: O=C(Nc1n[nH]c(=S)s1)NC(Cc1ccccc1)C(=O)NCCN1CCOCC1 (stereo not given)
# output 165 to 167 °C

====

readout-type: melting point

# input State its melting point for this compound: `O=C(O)CCn1c(=O)n(CCCN2CCC(OC(c3ccccc3)c3ccccc3)CC2)c(=O)c2ccccc21`
# output 237 to 238 °C

# input State its melting point for this compound: O=C(O)C(CCN1C(=O)c2ccccc2C1=O)Oc1c(Br)cc(-c2ccc(-c3c(Cc4ccccc4)sc4ccccc34)cc2)cc1Br (centres undefined)
# output 113 to 115 °C

# input State its melting point for this compound: `CCC(=N)Nc1ccccc1N1CCOCC1`
# output 114 °C

# input State its melting point for this compound: `FC(F)(F)C(F)(F)C(F)(F)C(F)(F)C(F)(F)C(F)(F)C(F)(F)C(F)(F)C(F)(F)C(F)(F)C(F)(F)Br`
# output 96 to 98 °C

# input State its melting point for this compound: `CNC(=S)Nc1cc(Cl)ccc1C`
# output 139 to 140 °C

# input State its melting point for this compound: `Nc1ccc2c(c1)S(=O)(=O)N=C2NCCCOc1cccc(CN2CCCCC2)c1`
# output 191 to 193 °C

# input State its melting point for this compound: `CN(Cc1cc(C(F)(F)F)cc(C(F)(F)F)c1)C(=O)c1c(-c2ccccc2)c2ccccc2c(=S)n1C`
# output 145 to 147 °C

# input State its melting point for this compound: `CC1(C)C=C(c2ccccn2)c2ccc(C#N)cc2OC1`
# output 132 °C

# input State its melting point for this compound: `O=c1[nH]nc(Cl)cc1Nc1ccc(-c2ccncc2)nn1`
# output 263 to 265 °C

====

readout-type: melting point

# input State its melting point for this molecule: `CCCCC(=O)c1c(-c2ccc3c(Br)c(OCC(=O)OCC)ccc3c2)oc2ccc(Cl)cc12`
# output 88 to 91 °C

# input State its melting point for this molecule: `CC(=O)Nc1cc([N+](=O)[O-])ccc1O`
# output 283 to 284 °C

# input State its melting point for this molecule: CCCC(C(=O)N(C)C)n1cc(C)c(-c2ccccc2)n1 (centres undefined)
# output 84 to 86 °C

# input State its melting point for this molecule: `O=c1ccc(S(=O)(=O)c2oc3ccccc3c2O)n[nH]1`
# output 186 to 189 °C

# input State its melting point for this molecule: `Cc1ccc(Cl)cc1N1CCCN(C(C)C)C1=S`
# output 176 to 178 °C

# input State its melting point for this molecule: `COc1ccc(NS(=O)(=O)c2cccc3ccccc23)cc1OCCc1ccc2ccccc2c1`
# output 127 to 131 °C

# input State its melting point for this molecule: `N#CCCc1cccc2ccn(Cc3cccc(/C=C/c4ccc5ccc(Cl)cc5n4)c3)c12`
# output 151 °C

# input State its melting point for this molecule: `CCCCC(Cc1cc(C(C)(C)C)c(O)c(C(C)(C)C)c1)(C(=O)OC1CC(C)(C)N(C(C)=O)C(C)(C)C1)C(=O)OC1CC(C)(C)N(C(C)=O)C(C)(C)C1`
# output 120 to 124 °C

# input State its melting point for this molecule: O=C(O)CCCCCOc1ccc(C2OC3C(CO)OC(n4ccc(=O)[nH]c4=O)C3O2)cc1 (centres undefined)
# output 158 to 160 °C

====

I'd appreciate it if you could supply melting point values for the items below.

# input State its melting point for this compound: `CC(C)[C@@H]1CC[C@@H](C)C[C@H]1O[C@@H]1OC(=O)[C@@H]2[C@H]1C2(C)C`
# output 82 °C

# input State its melting point for this compound: NCc1cc(Cl)c(NC(=O)CN2CCN(CCCCC(c3ccc(F)cc3)c3ccc(F)cc3)CC2C(N)=O)c(Cl)c1 (stereo not given)
# output 161 °C

# input State its melting point for this compound: `O=C(O)c1ccc(Sc2ccc(C(=O)O)c(C(=O)O)c2)cc1C(=O)O`
# output 202 to 203 °C

# input State its melting point for this compound: `O=C1NCCc2c(-c3cccc(C(F)(F)F)c3)[nH]c3cccc1c23`
# output 212 to 214 °C

# input State its melting point for this compound: OCC1OC(n2c(NC3CC3)nc3cc(Cl)c(Cl)cc32)C(O)C1O (stereo not given)
# output 184 to 186 °C

# input State its melting point for this compound: CCOC(=O)N[C@@H]1Cc2ccccc2[C@H]1Nc1ccccc1C(=O)OC (relative stereo)
# output 108 to 110 °C

# input State its melting point for this compound: O=C(Nc1ccc(Cl)nc1)N1CC2(c3ccc(Cl)cc3)COc3cc(Cl)ccc3C2=N1 (stereo not given)
# output > 250 °C

# input State its melting point for this compound: `CC(C)c1coc(=O)n1-c1cc(F)c(C#N)cc1F`
# output 83 °C

# input State its melting point for this compound: `Fc1cccc(F)c1CCNC(=S)Nc1ccccn1`
# output 157 to 160 °C

# input State its melting point for this compound: `Nc1cc(O)ccc1F`
# output 137 to 139 °C

# input State its melting point for this compound: `O=C1CCCC(=O)N1c1cc(Cl)cc(Cl)c1`
# output 172 to 174 °C

# input State its melting point for this compound: COc1ccc(NC(=O)N2C(=O)CC(c3ccc(OC)c(OC4CCCC4)c3)N2C)cc1 (stereo not given)
# output 123 to 125 °C

# input State its melting point for this compound: `CCCCNC(=O)NS(=O)(=O)Cc1ccccc1-c1nnc(SC)o1`
# output 156 to 159 °C

# input State its melting point for this compound: `Cc1c(NC(=O)c2ccc(-c3ccc4c(c3)CCO4)cc2F)ccc2cc(CN3CCCC3)cnc12`
# output 181 to 182 °C

# input State its melting point for this compound: `CCN(CC)C(=O)CCc1nc(-c2ccccc2)cc2ccccc12`
# output 58 °C

# input State its melting point for this compound: `C#CCNC(=NCCSCc1csc(NC(=N)N)n1)NC#N`
# output 146 to 148 °C

# input State its melting point for this compound: `ClCc1ccccc1-c1ccccc1-c1ccccc1CCl`
# output 189 to 190 °C

# input State its melting point for this compound: `CC(C)(c1ccccc1)N1CCC=C(c2ccccc2)C1=O`
# output 119 to 120 °C

# input State its melting point for this compound: CCOC(=O)C1CC2CC(CP(=O)(O)O)CCC2CN1 (stereo not given)
# output 184 to 185 °C

# input State its melting point for this compound: `CCOC(=O)c1sc(N2CCN(Cc3ccc(C(F)(F)F)cc3)C2=O)nc1C`
# output 126 to 127 °C

====

I'd appreciate it if you could supply melting point values for the items below.

# input State its melting point for this molecule: `CCN(c1ccc(OC)cc1)c1cc(NC)nc(C)n1`
# output 116 to 118 °C

# input State its melting point for this molecule: CCOC(=O)C(N)C=C(CCCCCCN)CP(=O)(O)O (stereo not given)
# output 194 °C

# input State its melting point for this molecule: `CCOC(=O)c1c(C)nc(C)n1Cc1ccc2oc(-c3ccccc3-c3nnn(C(c4ccccc4)(c4ccccc4)c4ccccc4)n3)c(Br)c2c1`
# output 98 to 100 °C

# input State its melting point for this molecule: `CNC(=O)Cc1c(-c2cc(C)sc2C)nc2sc3ccccc3n12`
# output 238 to 239 °C

# input State its melting point for this molecule: `Clc1nc(-c2cccnc2)sc1NC1CC1`
# output 56 to 60 °C

====

I'd appreciate it if you could supply melting point values for the items below.

# input State its melting point for this compound: `FC(F)(F)Oc1ccc2nc(C(F)(F)F)[nH]c2c1`
# output 158 to 160 °C

# input State its melting point for this compound: `COc1cnn(-c2ccc(C)cc2)n1`
# output 65 to 67 °C

# input State its melting point for this compound: `Cc1cc(C)c2[nH]c(C(=O)NC(N)=S)cc2c1`
# output 220 to 223 °C

# input State its melting point for this compound: `CCOc1ccc2c(c1)n(C1CCCCC1)c(=O)n2Cc1ccc(S(=O)(=O)NC(C)(C)CC)cc1`
# output 165 °C

# input State its melting point for this compound: `CCCCCCCCCCCCCCCCCCOc1cc(C(=O)O)cc(N(CC(=O)O)CC(=O)O)c1`
# output 149 to 155 °C

# input State its melting point for this compound: `COc1ccc(C2=CCN(Cc3ccccc3)CC2)cc1OC`
# output 94 to 96 °C

# input State its melting point for this compound: `NC(=O)[C@@H]1[C@H](Nc2c(Br)cnc3[nH]c(-c4cccc(CN5CCOCC5)c4)nc23)[C@H]2C=C[C@@H]1C2`
# output 184 to 185 °C

# input State its melting point for this compound: CCS(=O)(=O)c1cc(C(=O)NCC2CCCN2CC2=CCCC2)c(OC)cc1N (stereo not given)
# output 125 to 126 °C

# input State its melting point for this compound: `COc1cc(OC)cc(C(=O)N2CCc3cc(O)ccc3C2)c1`
# output 170 to 171 °C

# input State its melting point for this compound: Cc1cc(C2(c3ccc(OC(F)F)cc3)N=C(N)N(C)C2=O)ccc1F (stereo not given)
# output 70 °C
